Catalogue of apparent KD of MS2 coat protein values
System: MS2 coat protein
Test: apparent KD of MS2 coat protein; designed switch direction (-1 OFF switch, 1 ON switch): 1; higher = weaker reporter binding
Settings: Eterna round: R95; input ligand: FMN 200 uM

sequence-content: GAAGGAUGAGCGUAGGAUAUAGGAGGAGUGACAUGAGGAUCACCCAUGUAGUAGGAGGGAGGGUACUAGAAGGACGAGGAAGAGG [JR_SS2_Sub068] (puzzle: Same State 2)
apparent KD of MS2 coat protein (nM): 67

sequence-content: CGGGUACAUGAGGAUCACCCAUGUUGGAGUAAUGCAGGAUAUGUGAGACGAGAUGAUAAAACAGAAGGGCAAGGAG [JR_SS!_Sub010] (puzzle: Same State 1)
apparent KD of MS2 coat protein (nM): 50.2

sequence-content: AUAAAACAUGAGGAUCACCCAUGUCAACAAAGUCGAGGAUAUGGGCAAAUAAAUUAAGAACCAGAAGGCGAAUAAU [salish99_ss1_r3_021] (puzzle: Same State 1)
apparent KD of MS2 coat protein (nM): 36.9

* * *

Collected apparent KD of MS2 coat protein values appear next to each entry.
Test system: MS2 coat protein
Assay: apparent KD of MS2 coat protein; higher = weaker reporter binding
Conditions: Eterna round: R107; input ligand: tryptophan 2.4 mM

sequence-content: GGACUAACCAGAAGGAGCGACACGCAGAAACUGCUAAAUCCUCCGCACGAGGAUCACCCGUGUCAGGUAGGUCGCUGGUUAGUCG [ArgBX 28]
measured-on: MS2 coat protein
value-unit: nM
apparent KD of MS2 coat protein: 49.9

sequence-content: UUUUUCGUAGGUUAUAGUUUAGAAACUGAAGGAGCGUGGUAAUACACAGGUAGGUCGCAGAUUUUACAUGAGGAUCACCCAUGUU [JR_ExcArginiA_Sub013]
measured-on: MS2 coat protein
value-unit: nM
apparent KD of MS2 coat protein: 22.7

sequence-content: AGCCUAUUACAUGAGGAUCACCCAUGUGAUACCAGUCAGGAAACUGACCCUUGGCAGCGCAUGAGGAUCACCCAUGCGCUAGGCA [Omei Theo A Exc A v5]
measured-on: MS2 coat protein
value-unit: nM
apparent KD of MS2 coat protein: 10

sequence-content: CGGUUUGUGAUGGAUACCAGCAGAGUGGCUGUUUAUCCUGACAUGAGGAUCACCCAUGUGUGCCCUUGGCAGCUGUUGUGGGCUG [8.aB]
measured-on: MS2 coat protein
value-unit: nM
apparent KD of MS2 coat protein: 74.4

sequence-content: UGAACAUGAGGAUCACCCAUGUAGAGGGAAGGAGCGUCGAAGAAGACAGGUAGGUCGCCCAGAAAGAAAUCCUCAUGGAUAAGAA [Same State Arginine A GF2]
measured-on: MS2 coat protein
value-unit: nM
apparent KD of MS2 coat protein: 69

sequence-content: UCGACAGUGAACGAUACCAGCGUCACGUGGCCGGUGGUCACAUGAGGAUCACCCAUGUAACGCCCUUGGCAGCGUGCACGUAUCA [Latedirius]
measured-on: MS2 coat protein
value-unit: nM
apparent KD of MS2 coat protein: 20.5

sequence-content: GGUGGCGGGACUGAUACCAGCCACCACCGAUAGACCACAUGAGGAUCACCCAUGUUGGGUGGCCCUUGGCAGCAGUCUUGCUGCC [#1 Same State - Theophylline B Attempt #12 (HarryS)]
measured-on: MS2 coat protein
value-unit: nM
apparent KD of MS2 coat protein: 907

sequence-content: GGACUAACCAGAAGGAGCGGCACGCAGAAACUGCAAUUUCCUCCGCACGAGGAUCACCCGUGUCAGGUAGGUCGCUGGUUAGUCG
measured-on: MS2 coat protein
value-unit: nM
apparent KD of MS2 coat protein: 25.4

sequence-content: GAUGAACUAUUUGAUACCAGACAACAUGAGGAUCACCCAUGUGCGCGUCGUCCUCUGCCUGUCCCUUGGCAGCAAAUAGUUUAUC [XTheo B #10]
measured-on: MS2 coat protein
value-unit: nM
apparent KD of MS2 coat protein: 36.6

sequence-content: GGAUGAAACUGAAGGAGCGAGAACACAAGAAUGGGUCAAACAUGAGGAUCACCCAUGUAAUCUCAGGUAGGUCGCAGUAUCCCUU [Exclusion Arginine B GF 10]
measured-on: MS2 coat protein
value-unit: nM
apparent KD of MS2 coat protein: 36.6

sequence-content: GCCGCGGCCGCGAUACACAUGGGUGUGUAACGAGGACCGGUACGGCCGCCACUCGAGAUGAUGUACAUGAGGAUCACCCAUGUAC [Exclusion Tryp A GF13]
measured-on: MS2 coat protein
value-unit: nM
apparent KD of MS2 coat protein: 13.9

sequence-content: GUCAGUUCUCAUGAUACCAGACCUGCCUCGGACAUGAGGAUCACCCAUGUACCCAAGCGAGUCCCUUGGCAGCAUGUGGCUUAAA [Ririatre]
measured-on: MS2 coat protein
value-unit: nM
apparent KD of MS2 coat protein: 20.7

sequence-content: AGCGACAUGCGUGAUACCAGCUACAUGAGGAUCACCCAUGUCAGCAGGAAACUGCUGUGUAGCCCUUGGCAGCACAGUGCAUGUC [Exclusion - Theophylline B (Freestyle 28)]
measured-on: MS2 coat protein
value-unit: nM
apparent KD of MS2 coat protein: 13.8

sequence-content: GGUGGCGUGACGGAUACCAGCCACCGCGGCAACGCAACAUGAGGAUCACCCAUGUUGGGUGGCCCUUGGCAGCUGUCGUGCGGCG [#1 Same State - Theophylline B Attempt #23 (HarryS)]
measured-on: MS2 coat protein
value-unit: nM
apparent KD of MS2 coat protein: 78.1

sequence-content: GCAAUAACGAUUGAUACCAGCAUGUUAACAUGAGGAUCACCCAUGUUAAGGAUAACAUAAUGCCCUUGGCAGCAACGGAAAGCCG [Ac]
measured-on: MS2 coat protein
value-unit: nM
apparent KD of MS2 coat protein: 18.5

sequence-content: ACAUGAGGAUCACCCAUGUUGCUGACAGAAGGAGCGUGAUUAAGCACAGGUAGGUCGCUGUUGGUAUCGAGCGUUAGCUCGAUAC [SSArg A #8]
measured-on: MS2 coat protein
value-unit: nM
apparent KD of MS2 coat protein: 50

sequence-content: ACAUUUAACUGAAGGAGCGUGAUAUUUACAUGAGGAUCACCCAUGUCUUUCAUGAUAUAUUCACAGGUAGGUCGCAGACUAAUGA [JR_ExcArginiB_Sub006]
measured-on: MS2 coat protein
value-unit: nM
apparent KD of MS2 coat protein: 184

sequence-content: UGUGUAAUUGUCUGGUAGAAUUAUUUGUUUCGAGGACCGGUACGGCCGCCACUCGAUAUUUACAUGAGGAUCACCCAUGUUAGCU [JR_SSTryptoA_Sub004]
measured-on: MS2 coat protein
value-unit: nM
apparent KD of MS2 coat protein: 11.6

sequence-content: GGGCCCGUAAGCAGGCCCACAGCGGGUGAUACCAGCAAUAAAACUUGCCCUUGGCAGCACACAGCUACAUGAGGAUCACCCAUGU [Mausdi]
measured-on: MS2 coat protein
value-unit: nM
apparent KD of MS2 coat protein: 88.6

sequence-content: AGUAACAUGAGGAUCACCCAUGUAUGAGAAGGAGCGUGUUUUAACACAGGUAGGUCGCUCAAUAUUAAUUUAUUAGAUACAUUUA [JR_SSArginiA_Sub006]
measured-on: MS2 coat protein
value-unit: nM
apparent KD of MS2 coat protein: 34.3

sequence-content: UCACGACGCAACGUGAAAUAAUAAACAGAAGGAGCGAGGAAAGCCUCAGGUAGGUCGCUGACAUGAGGAUCACCCAUGUAUUACA [Same State Arginine A GF5]
measured-on: MS2 coat protein
value-unit: nM
apparent KD of MS2 coat protein: 32.2

sequence-content: CCGUCACAUGAGGAUCACCCAUGUGCGGAAGGAGCGGACGACAGUCCAGGUAGGUCGCCGUAUAGCCAAUGACCAGCAGUGUCGG [Betesotiqu]
measured-on: MS2 coat protein
value-unit: nM
apparent KD of MS2 coat protein: 13.9

sequence-content: GGAUAGGACACGGCCGCCACUACCUAGGAUACUAGCAACAUUUGGGUACAAGAGGAUCACCCUUGUAGGACCGGGUGUCCUAUCG
measured-on: MS2 coat protein
value-unit: nM
apparent KD of MS2 coat protein: 59

sequence-content: CAAUCAAUCAAUCAAUCAAUCAACCAUGAAGGAGCGUGGGAAACCACAGGUAGGUCGCAUGGAAAACAUGAGGAUCACCCAUGUA [Casablanca]
measured-on: MS2 coat protein
value-unit: nM
apparent KD of MS2 coat protein: 29.2
